- ASSAY SYSTEM: T1, HLA-DRB4 (HLA-DRB4*01:01) (human)
- T1 construct: mature; purified from homozygous EBV-transformed lymphoblastoid cells with antibody L243
- TEST NAME: competition ELISA vs biotin-E2/E168
No end group written: not given here.
Note to self: relative affinity under 10 means criterion met, ties and anything higher get criterion not met.

>>> assigned_class("SQIAAGAFCLALKIL-NH2 [CCNB1 342-356]")
"criterion not met"
>>> assigned_class("VQMKFRLLQETMYMT-NH2 [CCNB1 212-226]")
"criterion not met"

Problem: In the record for RPLPLHFLRRASKIG-NH2 [CCNB1 299-313] , is relative affinity less than 10?
Solution: criterion not met

Problem: Consider next the binder DWLVQVQMKFRLLQE-NH2 [CCNB1 207-221] in the same way.
Solution: criterion not met

Problem: Consider next the binder RAILIDWLVQVQMKF-NH2 [CCNB1 202-216] in the same way.
Solution: criterion not met

Problem: Consider next the binder GNMRAILIDWLVQVQ-NH2 [CCNB1 199-213] in the same way.
Solution: criterion met

Problem: Consider next the binder FRLLQETMYMTVSII-NH2 [CCNB1 216-230] in the same way.
Solution: criterion not met

Problem: Consider next the binder PTLQHYLSYTEESLL-NH2 [CCNB1 363-377] in the same way.
Solution: criterion met

Problem: Consider next the binder ETMYMTVSIIDRFMQ-NH2 [CCNB1 221-235] in the same way.
Solution: criterion met

Problem: Consider next the binder MTVSIIDRFMQNNCV-NH2 [CCNB1 225-239] in the same way.
Solution: criterion met

Problem: Consider next the binder LQLVGVTAMFIASKY-NH2 [CCNB1 244-258] in the same way.
Solution: criterion not met

Sourced from patent US20180086804A1
